Can you tell me inhibition for the items I'm about to list?
# Study System: Diacylglycerol lipase-beta (Mus musculus)
# Sequence (whole entry): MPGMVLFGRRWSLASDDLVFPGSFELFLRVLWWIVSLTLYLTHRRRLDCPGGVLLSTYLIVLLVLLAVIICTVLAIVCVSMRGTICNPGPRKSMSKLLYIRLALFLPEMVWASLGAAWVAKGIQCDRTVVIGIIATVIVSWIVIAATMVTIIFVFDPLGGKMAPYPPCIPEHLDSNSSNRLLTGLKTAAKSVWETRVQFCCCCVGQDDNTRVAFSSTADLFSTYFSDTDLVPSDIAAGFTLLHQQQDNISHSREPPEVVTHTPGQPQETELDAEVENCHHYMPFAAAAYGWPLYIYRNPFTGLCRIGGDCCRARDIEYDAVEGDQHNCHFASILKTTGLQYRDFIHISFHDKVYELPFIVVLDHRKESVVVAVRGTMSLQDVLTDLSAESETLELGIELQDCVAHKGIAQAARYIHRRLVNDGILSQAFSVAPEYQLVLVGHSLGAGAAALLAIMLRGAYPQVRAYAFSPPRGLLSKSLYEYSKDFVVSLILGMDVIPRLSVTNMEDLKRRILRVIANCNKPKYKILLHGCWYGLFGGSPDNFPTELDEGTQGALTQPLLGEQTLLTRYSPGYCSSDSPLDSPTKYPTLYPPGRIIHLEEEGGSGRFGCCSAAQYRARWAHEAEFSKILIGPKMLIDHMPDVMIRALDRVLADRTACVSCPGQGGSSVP
# Protocol Notes: Inhibition of FP-rhodamine-labelled recombinant mouse DAGLbeta expressed in HEK293T cells at 10 uM preincubated for 30 mins followed by FP-rhodamine labelling measured after 30 mins by gel-based competitive ABPP assay
# Assay type: cell-based
# Recorded Conditions: HEK-293T
Give bare numbers, in %.

O=C(N1CCCCC1Cc1ccccc1)n1cc(-c2ccc(-c3cccc(CO)c3)cc2)nn1 (racemic): 91
COc1ccccc1-c1ccc(-c2cn(C(=O)N3CCCCC3Cc3ccccc3)nn2)cc1 (racemic): 100
O=C(c1ccc(-c2ccc(-c3cn(C(=O)N4CCCCC4Cc4ccccc4)nn3)cc2)cc1)N1CCCCC1 (racemic): 58
COc1ccccc1-c1ccc(-c2cn(C(=O)N3CCCCC3c3ccccc3)nn2)cc1 (racemic): 70

# context switch: different compound, same inhibition
Which inhibition value belongs to COc1ccc(-c2ccc(-c3cn(C(=O)N4CCCCC4c4ccccc4)nn3)cc2)cc1 (racemic) ? 0

* * *

# Study System: Monoacylglycerol lipase ABHD6 (Mus musculus, UniProt Q8R2Y0)
# Sequence (Q8R2Y0 whole entry): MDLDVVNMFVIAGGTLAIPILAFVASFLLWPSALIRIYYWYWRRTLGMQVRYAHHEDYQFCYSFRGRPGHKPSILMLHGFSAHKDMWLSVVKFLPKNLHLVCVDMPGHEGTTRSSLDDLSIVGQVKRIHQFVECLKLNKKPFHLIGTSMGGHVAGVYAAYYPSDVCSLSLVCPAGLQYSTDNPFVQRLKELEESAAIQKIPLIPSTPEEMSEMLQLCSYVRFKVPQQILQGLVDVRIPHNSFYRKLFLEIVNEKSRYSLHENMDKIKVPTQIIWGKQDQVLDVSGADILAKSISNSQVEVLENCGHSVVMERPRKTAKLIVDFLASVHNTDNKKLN
# Protocol Notes: Inhibition of ABHD6 in FP-rhodamine-labelled mouse brain membrane preincubated for 30 mins followed by FP-rhodamine labelling measured after 30 mins by gel-based competitive ABPP assay
Assay Readout: pIC50
One number for each entry, as −log10 of the molar value.

What is its pIC50 for Monoacylglycerol lipase ABHD6 (Mus musculus, UniProt Q8R2Y0)? Entry: O=C(c1cccc(-c2ccc(-c3cn(C(=O)N4CCCCC4c4ccccc4)nn3)cc2)c1)N1CCCCC1 (racemic) 8.89

* * *

# Study System: Monoacylglycerol lipase ABHD6 (Mus musculus)
Assay Readout: IC50 (nM)
Give bare numbers, in nM.

Would you kindly share the measured IC50 for O=C(N1CCCCC1c1ccccc1)n1cc(-c2ccc(-c3cccc(CO)c3)cc2)nn1 (racemic) ? 0.24

* * *

# Study System: Monoacylglycerol lipase ABHD6 (Mus musculus) (UniProt Q8R2Y0)
# Sequence (Q8R2Y0 whole entry): as above
# Protocol Notes: Inhibition of ABHD6 in FP-rhodamine-labelled mouse brain membrane at 1 nM preincubated for 30 mins followed by FP-rhodamine labelling measured after 30 mins by gel-based competitive ABPP assay
# Format: tissue-based
We'd kindly ask you to apply these inhibition classes: low group = under 30%, middle group = from 30% up to 40%, high group = 40% and over

Consider the worked cases shown below.
O=C(O)c1cccc(-c2ccc(-c3cn(C(=O)N4CCCCC4Cc4ccccc4)nn3)cc2)c1 (racemic): high group
O=C(N1CCCCC1c1ccccc1)n1cc(-c2ccc(-c3ccc(CO)cc3)cc2)nn1 (racemic): low group
O=C(N1CCCCC1c1ccccc1)n1cc(-c2ccc(-c3cccc(CO)c3)cc2)nn1 (racemic): low group
O=C(N1CCCCC1c1ccccc1)n1cc(-c2ccc(-c3ccccc3CO)cc2)nn1 (racemic): middle group
O=C(c1cccc(-c2ccc(-c3cn(C(=O)N4CCCCC4c4ccccc4)nn3)cc2)c1)N1CCCCC1 (racemic): high group

Which class does NC(=O)c1ccc(-c2ccc(-c3cn(C(=O)N4CCCCC4c4ccccc4)nn3)cc2)cc1 (racemic) fall in? low group

Into which category would you place O=C(c1ccc(-c2ccc(-c3cn(C(=O)N4CCCCC4c4ccccc4)nn3)cc2)cc1)N1CCCCC1 (racemic) ? middle group

Which bin should I file O=C(O)c1cccc(-c2ccc(-c3cn(C(=O)N4CCCCC4c4ccccc4)nn3)cc2)c1 (racemic) under? middle group

Band for O=C(O)c1cccc(-c2ccc(-c3cn(C(=O)N4CCCCC4CCc4ccccc4)nn3)cc2)c1 (racemic) ? middle group

# credit: ChEMBL document CHEMBL3259629
